The origin of these recorded values is patent US20260176289A1.

- MEASUREMENT_TARGET: KRAS-G12D (Homo sapiens, UniProt P01116, G12D)
- Sequence (P01116 with tags, fused parts or gaps isoform P01116-2 G12D): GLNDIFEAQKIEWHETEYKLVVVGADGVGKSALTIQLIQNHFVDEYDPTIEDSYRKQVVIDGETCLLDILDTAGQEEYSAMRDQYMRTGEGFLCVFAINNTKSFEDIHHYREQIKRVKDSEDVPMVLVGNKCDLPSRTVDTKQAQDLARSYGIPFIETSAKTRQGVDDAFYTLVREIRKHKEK
- ASSAY_NAME: SOS-catalyzed nucleotide exchange assay (Procedure A, TR-FRET), KRAS-G12D
- Format: biochemical
- RUN_PARAMETERS: nucleotide exchange, read-out: KRAS G12D GNE IC50
pIC50: −log10 of the molar value.
The threshold is inclusive: pIC50 of exactly 7 counts as Condition met; values below receive Condition not met.

Could you verify whether the entry C[C@@]1(O)COCCN(c2nc(OC[C@]3(CN4CC5(COC5)C4)CC3(F)F)nc3sc4c(-c5c(C6CC6)c(Cl)cc6[nH]ncc56)nccc4c23)C1 [Ex-213] shows pIC50 of no less than 7? Condition met

Would you kindly repeat that for Cc1nc2[nH]nc(C)c2c(-c2nccc3c4c(N5CCOC[C@@](C)(O)C5)nc(OC[C@@]56CCCN5C[C@H](F)C6)nc4n(C)c23)c1C(F)(F)F [Ex-15] ? Condition not met

Would you kindly repeat that for C[C@@]1(O)COCCN(c2nc(OC[C@]3(CN4[C@@H]5CC[C@H]4C[C@H](F)C5)CC3(F)F)nc3sc4c(-c5c(C6(F)CC6)c(Cl)cc6[nH]ncc56)nccc4c23)C1 [Ex-251] ? Condition met

Would you kindly repeat that for C[C@@]1(O)COCCN(c2nc(OC[C@@]34CCCN3C/C(=C\F)C4)nc3sc4c(-c5c(C6(F)CC6)c(C(F)(F)F)cc6[nH]ncc56)nccc4c23)C1 [Ex-56] ? Condition met

Would you kindly repeat that for C[C@@]1(O)COCCN(c2nc(OC[C@@]34CCCN3C[C@H](F)C4)nc3sc4c(-c5cccc(Cl)c5C5CC5)nccc4c23)C1 [Ex-122] ? Condition not met

Would you kindly repeat that for C[C@@]1(O)COCCN(c2nc(OC[C@@]34CCCN3CC(=C(F)F)C4)nc3sc4c(-c5c(C6(F)CC6)c(Cl)cc6[nH]ncc56)nccc4c23)C1 [Ex-272] ? Condition met

----------
KRAS WT (amino acids 1-169) (Homo sapiens, UniProt P01116): reported IC50 for various compounds.
Sequence (P01116 with tags, fused parts or gaps isoform P01116-2): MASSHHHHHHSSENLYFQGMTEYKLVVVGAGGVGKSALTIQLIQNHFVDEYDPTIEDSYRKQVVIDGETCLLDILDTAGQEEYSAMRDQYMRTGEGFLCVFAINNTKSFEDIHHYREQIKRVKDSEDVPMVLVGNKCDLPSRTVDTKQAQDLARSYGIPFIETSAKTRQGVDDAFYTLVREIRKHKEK
Respond with the bare value in nM.

Request body: readout IC50, system KRAS WT (amino acids 1-169) (Homo sapiens, UniProt P01116), query CC1Cc2cc3[nH]ncc3c(-c3nccc4c3sc3nc(OC[C@@]56CCCN5C[C@H](F)C6)nc(N5CCOC[C@@](C)(O)C5)c34)c2C1 (stereo partly shown) [Ex-113] . Return the value. 150

Would you kindly repeat that for C#Cc1n[nH]c2cc(C)c(C(F)(F)F)c(-c3nccc4c3sc3nc(OC[C@@]56CCCN5C[C@H](F)C6)nc(N5CCOC[C@@](C)(O)C5)c34)c12 [Ex-151] ? 690

Would you kindly repeat that for C#Cc1c(Cl)cc2[nH]ncc2c1-c1nccn2c1c(F)c1nc(OC[C@@]34CCCN3C[C@H](F)C4)nc(N3CCOC[C@@](C)(O)C3)c12 [Ex-304] ? 34

Would you kindly repeat that for CCCC1CCc2cc3[nH]ncc3c(-c3nccc4c3sc3nc(OC[C@@]56CCCN5C[C@H](F)C6)nc(N5CCOC[C@@](C)(O)C5)c34)c21 (stereo partly shown) [Ex-95] ? 99.4

Would you kindly repeat that for Cc1cc2[nH]ncc2c(-c2nccc3c2sc2nc(OC[C@@]45CCCN4C[C@H](F)C5)nc(N4CCOC[C@@](C)(O)C4)c23)c1C(C)C [Ex-137] ? 58

Would you kindly repeat that for Cc1cc2[nH]ncc2c(-c2nccn3c2c(C)c2nc(OC[C@@]45CCCN4C[C@H](F)C5)nc(N4CCOC[C@@](C)(O)C4)c23)c1C(F)(F)F (single isomer, unassigned) [Ex-301] ? 107

Would you kindly repeat that for CC1c2c(cc3[nH]ncc3c2-c2nccc3c2sc2nc(OC[C@@]45CCCN4C[C@H](F)C5)nc(N4CCOC[C@@](C)(O)C4)c23)CC1(F)F (single isomer, unassigned) [Ex-107] ? 6.2

Would you kindly repeat that for Cc1cc2[nH]ncc2c(-c2nccc3c2sc2nc(OC[C@@]45CCCN4C[C@H](F)C5)nc(NC45CC(C4)C5)c23)c1C(F)(F)F [Ex-181] ? 1480

Would you kindly repeat that for C#Cc1cccc2cccc(-c3nncc4c3sc3nc(OC[C@@]56CCCN5C[C@H](F)C6)nc(N5CCOC[C@@](C)(O)C5)c34)c12 [Ex-285] ? 889

Would you kindly repeat that for Cc1cc2[nH]nc(I)c2c(-c2nccc3c2sc2nc(OC[C@@]45CCCN4C[C@H](F)C5)nc(N4CCOC[C@@](C)(O)C4)c23)c1C(F)(F)F [Ex-149] ? 1350

----------
- MEASUREMENT_TARGET: KRAS-G12C (C51S/C80L/C118S) (Homo sapiens, UniProt P01116, C118S/C51S/C80L/G12C)
- Sequence (P01116 with tags, fused parts or gaps isoform P01116-2 G12C/C51S/C80L/C118S): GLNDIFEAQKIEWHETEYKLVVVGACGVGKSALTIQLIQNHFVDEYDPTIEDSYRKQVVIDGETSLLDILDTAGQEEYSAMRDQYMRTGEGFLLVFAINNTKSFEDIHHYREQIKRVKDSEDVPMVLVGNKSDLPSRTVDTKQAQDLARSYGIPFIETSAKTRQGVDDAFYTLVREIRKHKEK
- ASSAY_NAME: SOS-catalyzed nucleotide exchange assay (Procedure A, TR-FRET), KRAS-G12C
- Format: biochemical
- RUN_PARAMETERS: nucleotide exchange, Procedure A; read-out: KRAS G12C GNE IC50
IC50 strictly under 0.05 µM means TRUE; at 0.05 µM or over means FALSE.

Take the compound C[C@@]1(O)COCCN(c2nc(OC[C@@]34CCCN3C[C@H](F)C4)nc3sc4c(-c5ccc(F)c6sc(N)c(C#N)c56)cncc4c23)C1 and say whether its IC50 is less than 0.05 µM. FALSE

Would you kindly repeat that for C[C@@]1(O)COCCN(c2nc(OC[C@@]34CCCN3C/C(=C\F)C4)nc3sc4c(-c5c(C6(F)CC6)c(C(F)(F)F)cc6[nH]ncc56)nccc4c23)C1 ? FALSE

Would you kindly repeat that for CC[C@@H]1CCCc2cc3[nH]ncc3c(-c3nccc4c3sc3nc(OC[C@@]56CCCN5C[C@H](F)C6)nc(N5CCOC[C@@](C)(O)C5)c34)c21 ? TRUE

Would you kindly repeat that for Cc1cc2[nH]ncc2c(-c2nccc3c2sc2nc(OC[C@@]45CCCN4C[C@H](F)C5)nc(N4CCC[C@@](C)(O)C4)c23)c1C(F)(F)F ? FALSE

Would you kindly repeat that for C#Cc1c(F)ccc2cc3[nH]ncc3c(-c3nccc4c3sc3nc(OC[C@@]56CCCN5C[C@H](F)C6)nc(N5CCOC[C@@](C)(O)C5)c34)c12 ? FALSE

Would you kindly repeat that for C[C@@]1(O)COCCN(c2nc(OC[C@@]34CCCN3C[C@H](F)C4)nc3sc4c(-c5c(C(F)F)ccc6[nH]ncc56)nccc4c23)C1 ? FALSE

----------
- MEASUREMENT_TARGET: KRAS WT (amino acids 1-169) (Homo sapiens)
pIC50: −log10 of the molar value.
The threshold is inclusive: pIC50 of exactly 8 counts as y; values below receive n.

Could you verify whether the entry CO[C@]1(C)COCCN(c2nc(OC[C@@]34CCCN3C[C@H](F)C4)nc3sc4c(-c5c(C(F)(F)F)c(C)cc6[nH]ncc56)nccc4c23)C1 [Ex-203] shows pIC50 of no less than 8? n

Would you kindly repeat that for CCC1CCc2cc3[nH]ncc3c(-c3nccc4c3sc3nc(OC[C@@]56CCCN5C/C(=C\F)C6)nc(N5CCOC[C@@](C)(O)C5)c34)c21 (stereo partly drawn) [Ex-94] ? y

Would you kindly repeat that for CC1CC(F)(F)c2cc3[nH]ncc3c(-c3nccc4c3sc3nc(OC[C@@]56CCCN5C[C@H](F)C6)nc(N5CCOC[C@@](C)(O)C5)c34)c21 (stereo partly drawn) [Ex-101] ? y

Would you kindly repeat that for CC1(F)c2c(cc3[nH]ncc3c2-c2nccc3c2sc2nc(OC[C@@]45CCCN4C[C@H](F)C5)nc(N4CCOC[C@@](C)(O)C4)c23)CC1(F)F (single isomer, unassigned) [Ex-99] ? n

----------
Provide the recorded pIC50 for the entries that follow.
- MEASUREMENT_TARGET: KRAS-G12D (Homo sapiens, UniProt P01116, G12D)
- ASSAY_NAME: SOS-catalyzed nucleotide exchange assay (Procedure A, TR-FRET), KRAS-G12D
- Format: biochemical
- RUN_PARAMETERS: nucleotide exchange, read-out: KRAS G12D GNE IC50
Lab note — pIC50 values are minus log10 of concentrations in M.

Fill in the blank: the reported pIC50 of Cc1nc2[nH]ncc2c(-c2nccc3c4c(N5CCOC[C@@](C)(O)C5)nc(OC[C@@]56CCCN5C[C@H](F)C6)nc4n(C)c23)c1C(F)(F)F [Ex-14] is ____. 6.56

Would you kindly repeat that for CN(C)C[C@@]1(COc2nc(N3CCOC[C@@](C)(O)C3)c3c(n2)sc2c(-c4c(C5CC5)c(C(F)(F)F)cc5[nH]ncc45)nccc23)CC1(F)F [Ex-206] ? 8.15

Would you kindly repeat that for C[C@@]1(O)COCCN(c2nc(OC[C@@]34CCCN3C[C@H](F)C4)nc3sc4c(-c5c(C(F)(F)F)c(Cl)cc6[nH]ncc56)nccc4c23)C1 [Ex-40] ? 7.21
